- assay.notes: in vitro
- experimental.conditions: human, hela cells, % viability
Binarize viability at 28.5 h, 10 µM at 90%; below is 1, at or above is -1.

Reference set (5 entries):
CC1CN(c2ccc(CNc3ncccc3C#N)cn2)CCO1 (stereo not shown): -1
COC(=O)c1ccc(CSc2nnc(-c3ccc(OC)cc3)n2C(C)C)o1: -1
O=C1NN=C(c2ccccc2)CC1c1c[nH]c2ccccc12 (stereo not shown): -1
CC(C)(C)C1CCC(=NNC(=O)c2ccc(CN3CCOCC3)cc2)CC1 (stereo not shown): -1
Cc1ccccc1-n1ccn(C(=O)CCC2CCCC2)c1=O: -1

Hello, is viability at 28.5 h, 10 µM of the following molecule strictly smaller than 90%? `COc1ccc(CCNC(=O)N2CCN(C3CCN(C)CC3)CC2)cc1OC`
-1

Hello, is viability at 28.5 h, 10 µM of the following molecule strictly smaller than 90%? N#Cc1cccc(C(=O)N2CCCC3(CCN(C(=O)Cc4c[nH]c5ccccc45)C3)C2)c1 (stereo not shown)
-1

Hello, is viability at 28.5 h, 10 µM of the following molecule strictly smaller than 90%? `CC(=O)Nc1cccc(CNC(=O)c2cccnc2OCC(F)(F)F)c1`
1

----------
- assay.notes: in vitro
- experimental.conditions: human, hela cells, % viability
reported.endpoint: viability at 28.5 h, 10 µM (%)
Return type: number; implicit unit %.

Cc1cc(NS(=O)(=O)c2ccc(NC(=O)c3cc(-c4ccc(C)o4)nc4ccccc34)cc2)nc(C)n1: 93.9
CS(=O)(=O)N1CCc2cc(C(=O)Cn3nc(C(=O)O)c4ccccc4c3=O)ccc21: 80.4
CC(=O)c1ccc2[nH]c(C(=O)O)c(CCN)c2c1: 91.6
COc1ccc(C)cc1S(=O)(=O)N(CC(=O)Nc1ccccc1C)c1ccc(Cl)cc1: 90.1
Cc1cc(CN2CC3CCCN3C[C@H]2C)oc1C (stereo partly drawn): 96.9
Cn1cc(CCNC(=O)NC2CCN(c3ncccn3)CC2)cn1: 104

Return the recorded viability at 28.5 h, 10 µM value; entry: C[C@H]1[C@@H]2[C@@H](O)C([C@H](C)C(=O)N3CCCCC3)CC[C@@]2(C)CC[C@@H]1NC(=O)C1CC1 (stereo partly drawn)
106

Return the recorded viability at 28.5 h, 10 µM value; entry: `CC(=O)Oc1ccc(-c2cccc(C(=O)NCCO)c2)cc1`
105

Return the recorded viability at 28.5 h, 10 µM value; entry: `CC(C)[C@H](CO)n1c(=O)[nH]c2ncc(-c3cccc(/C=C/C(=O)O)c3)nc21`
92.5

Return the recorded viability at 28.5 h, 10 µM value; entry: `Cc1oc(NC(=O)CN2CCN(c3cccc(Cl)c3)CC2)c(C#N)c1C`
82.5

Return the recorded viability at 28.5 h, 10 µM value; entry: `Cc1nc(N/C(=N/C(=O)c2ccccc2)NC(=O)c2ccccc2)nc2ccccc12`
103

----------
- assay.notes: in vitro
- experimental.conditions: human, hela cells, % viability
This section presents compounds with their documented viability at 28.5 h, 10 µM values.
Return type: number; implicit unit %.

CCOC(=O)c1cn(CC)c2cc(N3CCSCC3)c(F)cc2c1=O: 89.8
CCC1(CC)C(=O)N=C(C(C)(C)C)NC1=O: 88.8
O=C(O)CC1C(=O)NCCN1CC(c1ccccc1)c1ccccc1 (centres unmarked): 77.5
O=C(c1ccc(-n2ccnc2)c(-n2cccc2)c1)N1CCCCCC1: 87.4
CCOc1cc(C(=S)N2CCN(C)CC2)ccc1OCC(=O)N1CCOCC1: 101

Let's switch to this compound now.
Return the recorded viability at 28.5 h, 10 µM value; entry: `COc1ccc(CNc2cncc(-c3cncc(OC)c3)n2)cc1`
98.5

Measured values drawn from paper PMC12040169 for this set.
